enrichment ratio: recorded values
B1: PhoQ; a variant is named by its letters at X, in order, P23837 (parent)
chain: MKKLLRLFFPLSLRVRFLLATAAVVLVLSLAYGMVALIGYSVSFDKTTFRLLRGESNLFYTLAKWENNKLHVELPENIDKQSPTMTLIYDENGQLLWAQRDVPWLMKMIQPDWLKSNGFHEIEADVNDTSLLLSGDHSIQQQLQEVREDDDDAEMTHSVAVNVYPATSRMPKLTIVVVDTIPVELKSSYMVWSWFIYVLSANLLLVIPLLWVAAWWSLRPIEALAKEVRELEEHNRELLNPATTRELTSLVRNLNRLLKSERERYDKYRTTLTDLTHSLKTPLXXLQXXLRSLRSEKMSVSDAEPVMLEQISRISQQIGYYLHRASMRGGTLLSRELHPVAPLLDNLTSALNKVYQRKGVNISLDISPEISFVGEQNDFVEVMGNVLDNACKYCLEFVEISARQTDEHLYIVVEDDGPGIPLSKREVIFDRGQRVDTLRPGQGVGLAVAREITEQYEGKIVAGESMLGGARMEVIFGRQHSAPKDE

- Variants of: B1
- METHOD: enrichment ratio after two sorts for PhoP signalling (ratio (wild type AVST 3.29)); higher = more functional
- EXPERIMENTAL PARAMETERS: with PhoP (E. coli)
Over roughly 140,000 sequences, “enrichment ratio after two sorts for PhoP signalling” has its median near 0; the highest 2% begin near 11. The sample as a whole holds a higher share of the highest values than the screen did.

Reference set (3 entries):
> print(dat)
   mutant.code  test.value
1         AEAI        14.2
2         TQHK      ≤ 0.25
3         TQVG        12.2

response.value for `PKEG` (field: enrichment ratio) = ≤ 0.25

response.value for `KSWG` (field: enrichment ratio) = ≤ 0.25

response.value for `NQVC` (field: enrichment ratio) = ≤ 0.25

response.value for `LDFE` (field: enrichment ratio) = ≤ 0.25

response.value for `AEYM` (field: enrichment ratio) = 3.72

response.value for `TQWG` (field: enrichment ratio) = 18.3

response.value for `TGWG` (field: enrichment ratio) = 5.4

response.value for `DAHD` (field: enrichment ratio) = ≤ 0.25

response.value for `GVMY` (field: enrichment ratio) = ≤ 0.25

response.value for `TQED` (field: enrichment ratio) = ≤ 0.25

response.value for `TQVA` (field: enrichment ratio) = 3.07
